Hello, the source for this data is ChEMBL document CHEMBL1770092, in case you need it.

- Tested on: Escherichia coli
- MEASUREMENT DESCRIPTION: Antibacterial activity against Escherichia coli ATCC 25922 after 1 hr by modified CLSI M26-A method
- Type: functional
- MEASUREMENT CONDITIONS: ATCC 25922, 1 h
METRIC NAME: log10 MBC (log10 of the value in µg/mL)
Would you kindly interpret these values as log10 of MBC expressed in µg/mL?

So what's the measured log10 MBC for this one? CC1(C)C(=O)N(CCCCC[N+](C)(C)C)C(C)(C)N1Cl.[Cl-]
0.30

Now consider CC1(C)CN(CCS(=O)(=O)[O-])C(=O)N1Cl.[Na+] .
1.51

Now consider CC1(C)C(=O)N(CCCS(=O)(=O)[O-])C(C)(C)N1Cl.[Na+] .
0.60

Now consider CC1(C)C(=O)N(CCC[N+](C)(C)C)C(=O)N1Cl.[Cl-] .
2.11

Now consider CN1CC(C)(CO)N(Cl)C1=O (stereo unspecified) .
1.20

Now consider CC1(C)CC(O)CC(C)(C)N1Cl .
0.00

Now consider CC1(C)C(=O)N(CCS(=O)(=O)CCCS(=O)(=O)[O-])C(=O)N1Cl.[Cs+] .
2.41

Now consider CC1(C)C(=O)N(CCC[N+](C)(C)C)C(C)(C)N1Cl.[Cl-] .
0.60

Now consider CC1(C)CS(=O)(=O)CC(C)(C)N1Cl .
0.30

Now consider CC1(C)C(=O)N(CCCS(=O)(=O)[O-])C(=O)N1Cl.[Na+] .
1.20

Now consider CC1(C)CC(=O)CC(C)(C)N1Cl .
0.00

Now consider CC1(C)C(=O)N(CCCCC[N+](C)(C)C)C(=O)N1Cl.[Cl-] .
2.11

Now consider CC1(C)C(=O)N(CCS(=O)(=O)[O-])C(=O)N1Cl.[Na+] .
2.11

Now consider CC1(C)C(=O)N(CCS(=O)(=O)[O-])C(=O)C(C)(C)N1Cl.[Na+] .
2.11

Now consider CC1(C)C(=O)N(CCCCO)C(C)(C)N1Cl .
0.30

Now consider CC1(C)C(=O)N(CCCCS(=O)(=O)[O-])C(C)(C)N1Cl.[Na+] .
1.20

---

We begin with a simple list: items and their reported MBC.
- System: Escherichia coli
- MEASUREMENT DESCRIPTION: Antibacterial activity against Escherichia coli ATCC 25922 after 1 hr by modified CLSI M26-A method
- Type: functional
- MEASUREMENT CONDITIONS: ATCC 25922, 1 h
The reply should contain only the number, in µg/mL.

So what's the measured MBC for this one? CC1(C)CN(CCO)C(=O)C(C)(C)N1Cl
1

Now consider CC1(C)CN(CCS(=O)(=O)CCCS(=O)(=O)[O-])C(=O)N1Cl.[Cs+] .
64

Now consider CC1(C)C(=O)N(CCS(=O)(=O)[O-])CC(=O)N1Cl.[Na+] .
128

Now consider CC(=O)[O-].CC1(C)CN(CC[N+](C)(C)C)C(=O)N1Cl .
512

Now consider CC1(C)CC([N+](C)(C)C)CC(C)(C)N1Cl.[Cl-] .
16

Now consider CN1C(=O)N(Cl)C(C)(C[N+](C)(C)C)C1=O.[Cl-] (stereo unspecified) .
16

---

- MEASUREMENT DESCRIPTION: Stability of the compound assessed as half life in aqueous buffer at 40 degC
We begin with a simple list: items and their reported half-life.
The reply should contain only the number, in days.

Known half-life results, listed for orientation:
CC1(C)C(=O)N(CCS(=O)(=O)[O-])C(=O)N1Cl.[Na+]: 65
CC(=O)[O-].CC1(C)CN(CC[N+](C)(C)C)C(=O)N1Cl: 126
CC1(C)CC(O)CC(C)(C)N1Cl: 32
CN1C(=O)N(Cl)C(C)(C[N+](C)(C)C)C1=O.[Cl-] (stereo not drawn): 5
CC1(C)C(=O)N(CCS(=O)(=O)[O-])C(=O)C(C)(C)N1Cl.[Na+]: 90
CC1(C)CC([N+](C)(C)C)CC(C)(C)N1Cl.[Cl-]: 28

So what's the measured half-life for this one? CC1(C)C(=O)N(CCC[N+](C)(C)C)C(C)(C)N1Cl.[Cl-]
111

---

- MEASUREMENT DESCRIPTION: Stability of the compound assessed as half life in aqueous buffer at 40 degC
We begin with a simple list: items and their reported half-life.

Known half-life results, listed for orientation:
CC1(C)CN(CCS(=O)(=O)CCCS(=O)(=O)[O-])C(=O)N1Cl.[Cs+]: > 112 days
CC1(C)CS(=O)(=O)CC(C)(C)N1Cl: > 113 days
CC1(C)C(=O)N(CCS(=O)(=O)CCCS(=O)(=O)[O-])C(=O)N1Cl.[Cs+]: > 7 days

So what's the measured half-life for this one? CC1(C)C(=O)N(CCCCO)C(C)(C)N1Cl
> 92 days

Now consider CC1(C)CC(CCO)OC(=O)N1Cl (stereo unspecified) .
> 14 days

Now consider CC1(C)C(=O)N(CCCS(=O)(=O)[O-])C(=O)N1Cl.[Na+] .
> 14 days
